assay: yeast display, Sf9 membrane polyspecificity reagent, FACS + sequencing; frameworks hold sequencing errors
property: polyreactivity (PSR sort gate)

sequence_string | property | meas_value
QVQIVESGGGLVQAGGSLRLSCAASGITFPRYAMGWYRQAPGKESELVATITSRGGSTYYADSVKGRFTISRDNAKNTVYLQMISLKPEDTAVYYFNDRHYIFWSRYDYWGQGTQVTVSS | polyreactivity (PSR sort gate) | high polyreactivity
QVQLVESGGCLVQAGGSLRLSCAASGSIFRYYAMGWNRQAPGKERELVAAISSSGDNTYYADSVKGRFTISRDNAKNTVYLQMNSLKPEDTAVYYCAVRGERRYIYDYWGQGSQVTVSS | polyreactivity (PSR sort gate) | high polyreactivity
QVQLVESGGGLVQAGGSLRLSCAASGRIFEVYAMGWYRQAPGKERELVAAITSSGGSRTYYADSVKGRFTISRDNAKNTVYLQMNSLKPEDTAVYYCNDYGGRWIGGRRAYRYNYWGQGTQVNVSS | polyreactivity (PSR sort gate) | high polyreactivity
QVQLVESWGGLVQAGGSLRLRCAASGRIFVSNAMGWYRQAPGKERELVAAISKRGASTYYADSVKGRFTISRDNAKNTVYLQMNSLKPEDTAVYYCNVVTPGGPNYDYWGQGTQVTVSS | polyreactivity (PSR sort gate) | high polyreactivity
QVQLVESGGGLVQAGGSLRLSCAASGFTFEYYPMGWYRQAPGKERELVADITTSSAGTYYADSVKGRFTISRDNAKNTFYLQMNSLKPEDTAVYYCNRDALNTGEDLDYWGQGTQVSVSS | polyreactivity (PSR sort gate) | low polyreactivity
QVQLVESGGGLVQAGGSLRLSCAASGSIFSKYTMGWYRQAPGKERELVAAISRAGSTYYADSVKGRFTISRDNAKNTVYLQMNSLKPEDTAVYYCAAEWSDSVYYSYEYWGQGTQVTVSS | polyreactivity (PSR sort gate) | high polyreactivity
QVQLVESGGGLVQAGGSLRLSCAASGIIFPRYAMGWYRQAPGKEREVVAAITSGGSTYYADSVKGRFTISRDNAKNTVYLQINSLKPEDTAVSYCAAVRYSWDIYREYYYWGQGTQVTVSS | polyreactivity (PSR sort gate) | high polyreactivity
QVQLVESGGGLDQAGGSLRLSCAASGRILRYYTMGWYRQAPGKERELVAAISRSGGGTYYADSVKGRFTISRDNAKNTVYLQMNSLKPEDTAVYYCAKQTHQKAYDYWGQGTQVTVSS | polyreactivity (PSR sort gate) | high polyreactivity
QVQLVESGGGLVQAGGSLRLSCAASGFIFRVYAMGWYRQAPGKERELVAAITRAGNTYYADSVKGRFTISRDNAMNTVYLQMNSLKPEDTAVYYCNKYHYWASPMNYWGQGTQVTVSS | polyreactivity (PSR sort gate) | high polyreactivity
QVQLVESVRGLVQAGGSLRISCASSGSTFFTYPMGWYRQAPGKERELVASISIGGSTNYADSVKGRFTISRDNAKNTVYLQMNSLKPEDTAVYYCAKRYFTFGVDYDYWGQGTQVSVSS | polyreactivity (PSR sort gate) | low polyreactivity
